tested on: C. botulinum spores; experiment: microbe, parasite or virus in culture; type: cell-based; conditions: Clostridium botulinum, read-out: Sporostatic MIC (mM)
property.label: MIC

O=Cc1ccccc1 = 0.6 mM
O=CC(=O)c1ccccc1 = 0.6 mM
CC=O = 0.78 mM
O=Cc1ccc2c(c1)OCO2 = 0.6 mM
COc1cc(C=O)ccc1O = 0.6 mM
CCCCC=O = 2.44 mM
CC(C)C=O = 0.6 mM
O=CC=Cc1ccccc1 = 0.78 mM
CCCCCC(C=O)=Cc1ccccc1 = 0.6 mM
O=CCc1ccccc1 = 0.6 mM
